Would you kindly list pIC50 for each of these compounds?
target: PRMT5 (Homo sapiens, UniProt O14744); construct: purchased Viva (custom protein); assay: PRMT5 biochemical IC50 assay with SAM as cofactor; conditions: PRMT5, SAM as cofactor; read-out: SAM IC50
Sequence (O14744 whole entry): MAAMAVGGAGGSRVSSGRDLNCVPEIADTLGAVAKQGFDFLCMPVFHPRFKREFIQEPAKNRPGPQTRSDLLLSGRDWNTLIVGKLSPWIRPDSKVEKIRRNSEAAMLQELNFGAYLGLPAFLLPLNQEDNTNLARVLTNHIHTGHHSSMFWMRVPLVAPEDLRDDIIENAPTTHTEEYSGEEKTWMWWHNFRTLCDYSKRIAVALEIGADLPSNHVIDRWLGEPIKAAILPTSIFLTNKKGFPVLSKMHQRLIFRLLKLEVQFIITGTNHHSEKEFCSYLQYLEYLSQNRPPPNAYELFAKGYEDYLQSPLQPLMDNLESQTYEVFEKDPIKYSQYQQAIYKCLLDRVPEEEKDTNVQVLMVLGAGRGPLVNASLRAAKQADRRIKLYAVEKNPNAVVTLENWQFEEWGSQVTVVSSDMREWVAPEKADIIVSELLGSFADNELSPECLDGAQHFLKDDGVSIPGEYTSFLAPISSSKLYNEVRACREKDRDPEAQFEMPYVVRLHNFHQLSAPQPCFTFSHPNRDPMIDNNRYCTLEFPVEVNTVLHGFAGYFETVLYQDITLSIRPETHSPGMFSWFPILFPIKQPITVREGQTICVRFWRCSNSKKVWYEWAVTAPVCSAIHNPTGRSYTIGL
Sequence (Q9BQA1 whole entry partner): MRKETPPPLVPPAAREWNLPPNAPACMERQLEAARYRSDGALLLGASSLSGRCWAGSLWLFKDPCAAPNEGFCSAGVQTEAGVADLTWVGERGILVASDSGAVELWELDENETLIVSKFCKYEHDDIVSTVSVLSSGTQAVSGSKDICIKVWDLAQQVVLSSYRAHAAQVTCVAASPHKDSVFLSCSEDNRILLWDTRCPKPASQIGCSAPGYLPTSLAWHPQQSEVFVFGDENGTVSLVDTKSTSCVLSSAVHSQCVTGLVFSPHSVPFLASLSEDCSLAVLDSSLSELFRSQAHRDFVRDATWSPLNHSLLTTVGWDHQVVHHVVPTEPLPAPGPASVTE
pIC50: −log10 of the molar value.

Kindly note the recorded pIC50 for C[C@@H]1CC[C@@H](c2cc(F)c(F)c(F)c2)N(C(=O)C(=O)Nc2cncc(C(N)=O)c2)C1 (single isomer, unassigned) , which is < 6.30

Kindly note the recorded pIC50 for "CCc1cc(NC(=O)C(=O)N2C[C@@H](C)CC[C@@H]2c2ccc3sc(-c4nccn4C)nc3c2)cnc1N" , which is 6.30 to 7.30

Kindly note the recorded pIC50 for NC(=O)c1cncc(NC(=O)C(=O)N2C[C@@H](O)CC[C@@H]2c2ccccc2)c1 (racemic) , which is < 6.30

Kindly note the recorded pIC50 for Cn1nccc1C1CCCCN1C(=O)C(=O)Nc1cncc(C(N)=O)c1 (single isomer, unassigned) [Compound 59] , which is < 6.30

Kindly note the recorded pIC50 for Cc1cc(NC(=O)C(=O)N2C[C@H](C)CC[C@H]2C2CC3(CC(N)C3)C2)cnc1N (mixture of isomers) , which is 6.30 to 7.30

Kindly note the recorded pIC50 for C[C@@H]1CC[C@@H](c2cc(Cl)cc(C(F)(F)F)c2)N(C(=O)C(=O)Nc2cncc(C(N)=O)c2)C1 (single isomer, unassigned) , which is < 6.30

---

Would you kindly list IC50 for each of these molecules?
test system: HAP1 MTAP-deleted cell line; test: Viability assay, MTAP-deleted cell line; type: cell-based; settings: Homo sapiens, HAP1, viability IC50, MTAP-deleted cell line; read-out: HAP1 MTAP deleted viability

# IC50 measured on HAP1 MTAP-deleted cell line for item CNS(=O)(=O)c1ccc([C@@H]2CC[C@@H](C)CN2C(=O)C(=O)Nc2cncc(C(N)=O)c2)cc1 (racemic) = > 10000 nM

# IC50 measured on HAP1 MTAP-deleted cell line for item Cc1cc([C@@H]2CC[C@@H](C)CN2C(=O)C(=O)Nc2cnc(N)c(C)c2)ccc1O (single isomer, unassigned) = < 1000 nM

# IC50 measured on HAP1 MTAP-deleted cell line for item Cc1cc(NC(=O)C(=O)N2C[C@@H](C)CC[C@@H]2c2ccc3sccc3c2)cnc1N (single isomer, unassigned) = < 1000 nM

---

Would you kindly list IC50 for each of these molecules?
molecular target: PRMT5 (Homo sapiens, UniProt O14744); construct: purchased Viva (custom protein); assay: PRMT5 biochemical IC50 assay with no cofactor; details: PRMT5, no cofactor; read-out: No Cofactor/rel IC50

Kindly note the recorded IC50 for CCc1cc(NC(=O)C(=O)N2C[C@@H](C)CC[C@@H]2c2ccc3sc(C4CCN(CCF)CC4)nc3c2)cnc1N [Compound 1174] , which is < 50 nM

Kindly note the recorded IC50 for CCc1cc(NC(=O)C(=O)N2C[C@@H](C)CC[C@@H]2c2ccc3sc([C@H]4CCN(C)C(C)(C)C4)nc3c2)cnc1N (single isomer, unassigned) [Compound 1129] , which is < 50 nM

Kindly note the recorded IC50 for Cc1cc(NC(=O)C(=O)N2C[C@H](C)CC[C@H]2c2cc(F)c3[nH]ncc3c2)cnc1N (single isomer, unassigned) [Compound 1191] , which is > 500 nM

Kindly note the recorded IC50 for C[C@@H]1CC[C@@H](c2cnc3ccccc3c2)N(C(=O)C(=O)Nc2cncc(C(N)=O)c2)C1 (racemic) [Compound 257] , which is > 500 nM

Kindly note the recorded IC50 for CNC(=O)c1ccc([C@H]2CC[C@H](C)CN2C(=O)C(=O)Nc2cncc(C(N)=O)c2)s1 (single isomer, unassigned) [Compound 839] , which is > 500 nM

Kindly note the recorded IC50 for CCc1cc(NC(=O)C(=O)N2C[C@@H](C)CC[C@@H]2c2ccc3[nH]ncc3c2)cnc1N (single isomer, unassigned) [Compound 589] , which is < 50 nM
